Assay: soluble fraction after stress (log2 fold change); higher = more stays soluble; pooled small domains, quantitative proteomics
Details: stress: 50 degC
soluble fraction (log2) below -0.07 gives condition not met; soluble fraction (log2) at or above it gives condition met.

Sequence string | Class label
HMEIPRYRLIGADGGRMVDLGEGQGAIPPVDVKRGMIDMPGLGKGYYTADGKSAVITNADGSKTRVL | condition met
HMNSSTYIVTFKVDGEEDIVETYQWGDRIIVPEVEAKDDYVFIGWDAQIPEFMPERNLEFTAI | condition not met
HMQITAPVQKIDGVEYYMHKVEQGQTLYSISKLYNVGVKEIQKANQLGTEGIQLGQVLKVRKGG | condition met
HMEAEDLRDWVGARGIAYTALRPAGIAVVNGRRVDVVSEGAFVNRDDPVEVVRVEGRRIVVKP | condition not met
HMYFEDEELDRFVGTPAGAYTEEDVEEFRDVLLSLDIEEVPSWVRSLQLRGIDFPETLRPELYLL | condition not met
HMSLSKQETEFLTTFSASGKRVFTYQQATDYWQSKVAATNVLGRLVRKGWLQRLERGLYMIIPLEAGPERF | condition not met
HMSLAISGRNQLHGIIEEVRSDGLLSQIYLRVGDQVLTAVITRDAVAELKLKRGDTAVAIMKSTEVMIARE | condition met
